# assay comment: Half life in Sprague-Dawley rat at 2 mg/kg, iv by LC-MS/MS analysis
# Assay type: ADME, organism-based
# experimental conditions: in vivo
measurement type: half-life (h)

COc1cc2cn[nH]c2cc1-c1ccc(F)c2c(N)c(C(N)=O)cnc12 = 1.2

* * *

# assay comment: Stability in human plasma assessed as parent compound remaining at 1 uM measured after 2 hrs by LC-MS/MS analysis
# Format: ADME, cell-free
# experimental conditions: read-out: Stability
measurement type: remaining at 2 h, 1 µM (%)

COc1cc2cn[nH]c2cc1-c1ccc(F)c2c(N)c(C(N)=O)cnc12 = 93

* * *

# target system: Tyrosine-protein kinase BTK (Homo sapiens)
# Sequence (Q06187 whole entry): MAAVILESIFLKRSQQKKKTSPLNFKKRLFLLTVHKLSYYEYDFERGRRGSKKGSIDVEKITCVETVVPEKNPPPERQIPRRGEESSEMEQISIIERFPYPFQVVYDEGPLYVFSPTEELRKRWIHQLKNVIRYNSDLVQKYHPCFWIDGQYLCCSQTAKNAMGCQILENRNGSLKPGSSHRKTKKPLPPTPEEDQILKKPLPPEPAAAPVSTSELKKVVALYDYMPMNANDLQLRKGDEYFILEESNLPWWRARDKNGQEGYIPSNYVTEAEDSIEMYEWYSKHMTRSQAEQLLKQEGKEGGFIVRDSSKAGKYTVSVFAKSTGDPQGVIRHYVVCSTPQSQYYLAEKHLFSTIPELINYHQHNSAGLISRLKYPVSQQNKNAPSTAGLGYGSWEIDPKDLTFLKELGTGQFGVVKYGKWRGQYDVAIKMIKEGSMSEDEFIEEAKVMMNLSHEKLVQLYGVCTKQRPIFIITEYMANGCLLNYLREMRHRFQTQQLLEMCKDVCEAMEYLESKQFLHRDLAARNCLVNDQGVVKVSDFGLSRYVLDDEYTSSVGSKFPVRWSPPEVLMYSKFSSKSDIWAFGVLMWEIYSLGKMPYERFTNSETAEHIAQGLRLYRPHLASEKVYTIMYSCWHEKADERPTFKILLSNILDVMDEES
# assay comment: Reversible inhibition of sodium orthovanadate-stimulated BTK autophosphorylation at Tyr223 residues in human Ramos cells preincubated for 2 hrs followed by sodium orthovanadate addition and measured after 15 mins by Western blot analysis
# Type: cell-based
measurement type: EC50 (nM)

COc1cc2cn[nH]c2cc1-c1ccc(F)c2c(N)c(C(N)=O)cnc12 = 42.7

Data provenance: ChEMBL document CHEMBL4334447
